Hello, the source for this data is ChEMBL document CHEMBL3098031, in case you need it.

Species on record: Cavia porcellus
PROTOCOL: Selectivity ratio of Ki for guinea pig brain sigma1 receptor to Ki for guinea pig brain sigma2 receptor
Catalogue of molecules with associated Ratio Ki
Just the number, please, no unit after it.

Known Ratio Ki results, listed for orientation:
# STRUCTURE, VALUE_REPORTED
data = [
    ("O=C(CN1CCC(Cc2ccccc2)CC1)c1c[nH]c2ccc(O)cc12", 61.9),
    ("O=C(CN1CCC(c2ccccc2)CC1)c1c[nH]c2ccc(O)cc12", 12),
    ("O=C(CN1CCC(O)(c2ccc(Br)cc2)CC1)c1c[nH]c2ccc(O)cc12", 3.2),
    ("COc1ccc2[nH]cc(C(=O)CN3CCC(O)(c4ccccc4)CC3)c2c1", 5),
    ("COc1ccc2[nH]cc(C(=O)CN3CCC(O)(c4ccc(Cl)cc4)CC3)c2c1", 10.5),
]

Param item = `O=C(CN1CCC(O)(c2ccc(Cl)cc2)CC1)c1c[nH]c2ccc(O)cc12` ; retrieve measured Ratio Ki.
11.9

Do the same for `O=C(CN1CCC(O)(c2ccccc2)CC1)c1c[nH]c2ccc(O)cc12` please
4.7

Do the same for `COc1ccc2[nH]cc(C(=O)CN3CCC(O)(c4ccc(Br)cc4)CC3)c2c1` please
6

Do the same for `COc1ccc2[nH]cc(C(=O)CN3CCC(c4ccccc4)CC3)c2c1` please
95.5

----------
TARGET: Glutamate receptor ionotropic, NMDA 2B (Rattus norvegicus) (UniProt Q00960)
Sequence (Q00960 27-1482 limits assumed): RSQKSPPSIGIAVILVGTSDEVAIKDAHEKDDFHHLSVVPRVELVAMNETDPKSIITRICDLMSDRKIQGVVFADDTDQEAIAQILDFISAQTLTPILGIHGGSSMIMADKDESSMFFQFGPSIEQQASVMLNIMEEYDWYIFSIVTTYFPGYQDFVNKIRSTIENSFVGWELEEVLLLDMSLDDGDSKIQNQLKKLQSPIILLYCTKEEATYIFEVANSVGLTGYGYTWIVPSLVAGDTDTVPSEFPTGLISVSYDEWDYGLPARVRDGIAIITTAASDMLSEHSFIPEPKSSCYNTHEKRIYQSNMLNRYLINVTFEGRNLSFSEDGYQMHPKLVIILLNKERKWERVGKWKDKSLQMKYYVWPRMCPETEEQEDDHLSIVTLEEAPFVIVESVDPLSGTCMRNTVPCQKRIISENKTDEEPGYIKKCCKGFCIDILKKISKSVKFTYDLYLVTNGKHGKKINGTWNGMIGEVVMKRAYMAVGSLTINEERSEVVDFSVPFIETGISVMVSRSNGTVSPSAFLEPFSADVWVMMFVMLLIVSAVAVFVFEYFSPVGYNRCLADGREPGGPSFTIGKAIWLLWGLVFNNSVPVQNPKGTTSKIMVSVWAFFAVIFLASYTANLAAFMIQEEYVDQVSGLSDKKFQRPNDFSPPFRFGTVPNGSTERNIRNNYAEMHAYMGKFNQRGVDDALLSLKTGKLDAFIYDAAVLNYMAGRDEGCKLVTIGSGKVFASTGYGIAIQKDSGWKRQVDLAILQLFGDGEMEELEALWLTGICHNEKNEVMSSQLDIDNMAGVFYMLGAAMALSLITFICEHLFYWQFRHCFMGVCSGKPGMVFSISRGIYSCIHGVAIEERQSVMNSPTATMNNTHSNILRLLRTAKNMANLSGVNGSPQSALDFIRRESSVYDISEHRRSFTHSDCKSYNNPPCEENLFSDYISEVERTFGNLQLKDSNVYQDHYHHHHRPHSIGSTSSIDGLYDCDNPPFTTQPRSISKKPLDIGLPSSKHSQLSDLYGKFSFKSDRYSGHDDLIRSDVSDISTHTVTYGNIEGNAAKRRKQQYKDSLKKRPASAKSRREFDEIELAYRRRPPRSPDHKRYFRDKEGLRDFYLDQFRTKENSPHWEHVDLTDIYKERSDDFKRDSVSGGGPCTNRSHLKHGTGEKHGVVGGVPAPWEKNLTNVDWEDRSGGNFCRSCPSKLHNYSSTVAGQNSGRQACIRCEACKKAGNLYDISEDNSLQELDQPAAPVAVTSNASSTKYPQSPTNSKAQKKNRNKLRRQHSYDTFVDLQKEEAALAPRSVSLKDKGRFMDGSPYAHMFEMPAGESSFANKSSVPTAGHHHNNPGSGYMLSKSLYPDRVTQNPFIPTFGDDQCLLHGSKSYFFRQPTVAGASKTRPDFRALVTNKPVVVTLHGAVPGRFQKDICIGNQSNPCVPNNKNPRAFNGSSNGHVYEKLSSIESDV
PROTOCOL: Displacement of [3H]ifenprodil from Wistar rat cerebral cortex glutamate NMDA receptor GluN2B subunit at 10 uM after 120 mins by scintillation counting analysis
Type: tissue-based
Mark Y for reported inhibition of 30% or greater; mark N for anything smaller.

See these solved cases before continuing.
# STRUCTURE, GROUP_LABEL
measured = [
    ("COc1ccc2[nH]cc(C(=O)CN3CCC(O)(c4ccc(Cl)cc4)CC3)c2c1", "N"),
    ("COc1ccc2[nH]cc(C(=O)CN3CCC(O)(c4ccc(Br)cc4)CC3)c2c1", "N"),
    ("O=C(CN1CCC(Cc2ccccc2)CC1)c1c[nH]c2ccc(O)cc12", "Y"),
    ("N#CC1(c2ccccc2)CCN(CC(=O)c2c[nH]c3ccc(O)cc23)CC1", "N"),
    ("O=C(CN1CCC(O)(c2ccccc2)CC1)c1c[nH]c2ccc(O)cc12", "Y"),
    ("O=C(CN1CCC(O)(c2ccc(Br)cc2)CC1)c1c[nH]c2ccc(O)cc12", "Y"),
    ("O=C(CN1CCC(c2ccccc2)CC1)c1c[nH]c2ccc(O)cc12", "Y"),
    ("COc1ccc2[nH]cc(C(=O)CN3CCC(c4ccccc4)CC3)c2c1", "N"),
    ("COc1ccc2[nH]cc(C(=O)CN3CCC(O)(c4ccccc4)CC3)c2c1", "N"),
]

Consider now this further molecule.
Quick check: does `COc1ccc2[nH]cc(C(=O)CN3CCC(C#N)(c4ccccc4)CC3)c2c1` have inhibition greater than or equal to 30%?
N

----------
TARGET: Sigma non-opioid intracellular receptor 1 (Cavia porcellus)
Sequence (Q60492 whole entry): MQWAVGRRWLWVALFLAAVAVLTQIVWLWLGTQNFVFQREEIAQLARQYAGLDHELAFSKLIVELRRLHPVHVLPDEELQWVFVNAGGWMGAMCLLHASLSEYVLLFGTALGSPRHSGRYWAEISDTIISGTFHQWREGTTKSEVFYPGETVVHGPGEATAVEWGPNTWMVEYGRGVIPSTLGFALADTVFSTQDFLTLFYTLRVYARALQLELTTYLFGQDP
PROTOCOL: Displacement of [3H]-(+)-pentazocine from guinea pig brain sigma1 receptor after 150 mins by scintillation counting analysis
Simple rule here: Ki less than 600 nM is Y, otherwise N.

# STRUCTURE, GROUP_LABEL
records = [
    ("O=C(CN1CCC(c2ccccc2)CC1)c1c[nH]c2ccc(O)cc12", "N"),
    ("COc1ccc2[nH]cc(C(=O)CN3CCC(O)(c4ccc(Br)cc4)CC3)c2c1", "Y"),
    ("O=C(CN1CCC(Cc2ccccc2)CC1)c1c[nH]c2ccc(O)cc12", "N"),
    ("COc1ccc2[nH]cc(C(=O)CN3CCC(Cc4ccccc4)CC3)c2c1", "N"),
    ("COc1ccc2[nH]cc(C(=O)CN3CCC(O)(c4ccccc4)CC3)c2c1", "Y"),
    ("O=C(CN1CCC(O)(c2ccc(Cl)cc2)CC1)c1c[nH]c2ccc(O)cc12", "Y"),
    ("COc1ccc2[nH]cc(C(=O)CN3CCC(c4ccccc4)CC3)c2c1", "N"),
    ("COc1ccc2[nH]cc(C(=O)CN3CCC(O)(c4ccc(Cl)cc4)CC3)c2c1", "Y"),
]

Is 600 nM strictly greater than the compound's reported Ki? compound: `O=C(CN1CCC(O)(c2ccccc2)CC1)c1c[nH]c2ccc(O)cc12`
N

Do the same for `O=C(CN1CCC(O)(c2ccc(Br)cc2)CC1)c1c[nH]c2ccc(O)cc12` please
Y

----------
PROTOCOL: Displacement of [3H]DTG from guinea pig brain sigma2 receptor after 120 mins by scintillation counting analysis in presence of SKF10,047
Parameters: species or system Cavia porcellus
Simple rule here: Ki less than 80 nM is class 1, otherwise class 0.

# STRUCTURE, GROUP_LABEL
data = [
    ("O=C(CN1CCC(c2ccccc2)CC1)c1c[nH]c2ccc(O)cc12", "class 0"),
    ("COc1ccc2[nH]cc(C(=O)CN3CCC(O)(c4ccc(Br)cc4)CC3)c2c1", "class 1"),
    ("O=C(CN1CCC(Cc2ccccc2)CC1)c1c[nH]c2ccc(O)cc12", "class 1"),
    ("O=C(CN1CCC(O)(c2ccc(Br)cc2)CC1)c1c[nH]c2ccc(O)cc12", "class 1"),
]

Consider now this further compound.
Is 80 nM strictly greater than the compound's reported Ki? compound: `O=C(CN1CCC(O)(c2ccccc2)CC1)c1c[nH]c2ccc(O)cc12`
class 0

----------
Catalogue of compounds with associated inhibition
TARGET: Glutamate receptor ionotropic, NMDA 2B (Rattus norvegicus) (UniProt Q00960)
PROTOCOL: Displacement of [3H]ifenprodil from Wistar rat cerebral cortex glutamate NMDA receptor GluN2B subunit at 10 uM after 120 mins by scintillation counting analysis
Assay type: tissue-based

# STRUCTURE, TARGET, inhibition
measured = [
    ("CC(=O)C1(c2ccccc2)CCN(CC(=O)c2c[nH]c3ccc(O)cc23)CC1", "Glutamate receptor ionotropic, NMDA 2B (Rattus norvegicus) (UniProt Q00960)", "6%"),
    ("O=C(CN1CCC(O)(c2ccc(Cl)cc2)CC1)c1c[nH]c2ccc(O)cc12", "Glutamate receptor ionotropic, NMDA 2B (Rattus norvegicus) (UniProt Q00960)", "26%"),
]

Param item = `COc1ccc2[nH]cc(C(=O)CN3CCC(Cc4ccccc4)CC3)c2c1` ; retrieve measured inhibition.
86%
